# Tested On: PIEZO1 (SW982 cells) (Homo sapiens)
# Construct: endogenous full-length channel in native SW982 cells; response lost on PIEZO1 siRNA knockdown
# Sequence (Q92508 whole entry): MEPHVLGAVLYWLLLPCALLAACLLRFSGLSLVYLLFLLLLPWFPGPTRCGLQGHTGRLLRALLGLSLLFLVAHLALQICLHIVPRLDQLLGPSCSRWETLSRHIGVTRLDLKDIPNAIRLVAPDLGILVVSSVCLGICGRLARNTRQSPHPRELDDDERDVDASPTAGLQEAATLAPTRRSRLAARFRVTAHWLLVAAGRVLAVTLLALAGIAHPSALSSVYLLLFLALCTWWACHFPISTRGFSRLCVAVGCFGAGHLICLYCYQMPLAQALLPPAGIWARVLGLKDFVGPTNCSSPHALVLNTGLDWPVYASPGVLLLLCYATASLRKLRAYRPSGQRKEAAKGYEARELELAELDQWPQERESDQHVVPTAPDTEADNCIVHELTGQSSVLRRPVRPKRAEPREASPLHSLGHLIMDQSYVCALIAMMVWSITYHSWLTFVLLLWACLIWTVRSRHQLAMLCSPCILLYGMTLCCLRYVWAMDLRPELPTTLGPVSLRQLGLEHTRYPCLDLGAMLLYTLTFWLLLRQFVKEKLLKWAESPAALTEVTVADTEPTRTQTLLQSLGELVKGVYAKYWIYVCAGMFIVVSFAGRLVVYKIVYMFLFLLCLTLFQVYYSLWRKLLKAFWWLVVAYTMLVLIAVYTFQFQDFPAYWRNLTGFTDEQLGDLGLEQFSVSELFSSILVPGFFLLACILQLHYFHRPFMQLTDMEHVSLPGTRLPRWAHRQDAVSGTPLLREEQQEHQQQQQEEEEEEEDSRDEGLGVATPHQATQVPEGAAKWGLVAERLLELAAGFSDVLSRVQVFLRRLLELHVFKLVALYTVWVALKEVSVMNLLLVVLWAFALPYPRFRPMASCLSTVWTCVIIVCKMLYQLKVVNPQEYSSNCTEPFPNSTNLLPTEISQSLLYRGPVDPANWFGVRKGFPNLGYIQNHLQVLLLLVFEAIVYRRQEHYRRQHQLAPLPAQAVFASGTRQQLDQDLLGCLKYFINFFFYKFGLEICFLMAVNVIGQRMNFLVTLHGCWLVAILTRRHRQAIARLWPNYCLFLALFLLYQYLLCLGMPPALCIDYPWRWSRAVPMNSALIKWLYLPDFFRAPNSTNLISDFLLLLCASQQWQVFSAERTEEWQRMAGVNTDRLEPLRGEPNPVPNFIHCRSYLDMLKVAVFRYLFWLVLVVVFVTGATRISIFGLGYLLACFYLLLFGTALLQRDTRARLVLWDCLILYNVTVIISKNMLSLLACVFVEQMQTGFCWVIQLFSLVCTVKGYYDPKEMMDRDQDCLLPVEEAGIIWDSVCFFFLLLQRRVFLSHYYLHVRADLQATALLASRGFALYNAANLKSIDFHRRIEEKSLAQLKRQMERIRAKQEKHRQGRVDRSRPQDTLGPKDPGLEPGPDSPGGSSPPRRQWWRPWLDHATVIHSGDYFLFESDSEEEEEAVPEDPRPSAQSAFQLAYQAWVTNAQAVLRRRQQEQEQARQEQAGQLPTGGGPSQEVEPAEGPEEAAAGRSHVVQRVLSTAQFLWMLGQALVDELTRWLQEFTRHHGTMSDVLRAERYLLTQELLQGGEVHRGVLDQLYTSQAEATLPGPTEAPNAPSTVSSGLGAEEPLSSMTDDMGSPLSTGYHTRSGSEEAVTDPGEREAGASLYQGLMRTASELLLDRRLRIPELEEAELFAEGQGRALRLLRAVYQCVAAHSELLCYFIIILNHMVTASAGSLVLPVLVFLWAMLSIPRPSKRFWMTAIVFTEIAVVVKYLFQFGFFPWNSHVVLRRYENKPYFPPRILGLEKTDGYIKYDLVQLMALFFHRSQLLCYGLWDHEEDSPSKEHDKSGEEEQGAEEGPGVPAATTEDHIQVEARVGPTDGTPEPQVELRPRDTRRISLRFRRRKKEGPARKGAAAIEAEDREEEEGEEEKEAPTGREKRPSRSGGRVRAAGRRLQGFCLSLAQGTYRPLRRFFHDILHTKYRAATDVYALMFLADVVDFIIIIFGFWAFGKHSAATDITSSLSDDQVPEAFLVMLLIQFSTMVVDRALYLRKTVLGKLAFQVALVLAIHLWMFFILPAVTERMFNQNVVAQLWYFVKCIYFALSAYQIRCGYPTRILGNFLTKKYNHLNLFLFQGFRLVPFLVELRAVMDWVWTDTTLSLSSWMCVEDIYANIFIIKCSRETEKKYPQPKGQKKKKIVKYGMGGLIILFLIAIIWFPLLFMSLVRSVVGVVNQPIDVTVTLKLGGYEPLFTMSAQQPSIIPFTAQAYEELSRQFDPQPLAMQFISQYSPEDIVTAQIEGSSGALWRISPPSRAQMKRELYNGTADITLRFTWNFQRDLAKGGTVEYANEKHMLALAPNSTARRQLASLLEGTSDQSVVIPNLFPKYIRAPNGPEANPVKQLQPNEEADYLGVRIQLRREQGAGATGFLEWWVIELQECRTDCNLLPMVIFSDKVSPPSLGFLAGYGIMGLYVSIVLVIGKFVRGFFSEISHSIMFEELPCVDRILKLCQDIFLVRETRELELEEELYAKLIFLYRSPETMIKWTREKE
# Protocol: Fura-2 Ca2+ imaging
# Measurement Context: agonist; SBS with […] Ca2+, pH […]-26 °C; native SW982 cells, […] tested; bound only; read-out: apparent EC50
pEC50: −log10 of the molar value.
Property: pEC50

Input: Find the recorded pEC50 belonging to "Clc1cccc(Cl)c1CSc1nnc(-c2cnccn2)s1" and report it.
Output: > 6.00
